- Tested on: Mycobacterium tuberculosis (H37Rv)
- ASSAY_TEXT: Growth in liquid media in presence of test compound
- Format: cell-based
- EXPERIMENTAL_CONTEXT: 50 mg/L
MEASURED_PROPERTY: Growth in the presence of test compound, M. tuberculosis

{"MOLECULE": "CC1(C)C2CC3OB(CC(Cc4ccccc4)NC(=O)C(N)CCCCN)OC3(C)C1C2 (stereo not shown) [Compound 44]", "RECORDED_VALUE": "+"}
{"MOLECULE": "CC(B1OC2CC3CC(C3(C)C)C2(C)O1)C(Cc1ccccc1)NC(=O)C(N)CCCCN (stereo not shown)", "RECORDED_VALUE": "−"}
{"MOLECULE": "C[C@@H](B1OC2CC3CC(C3(C)C)[C@@]2(C)O1)[C@@H](Cc1ccccc1)NC(=O)[C@@H](N)Cc1ccccc1 (stereo partly shown)", "RECORDED_VALUE": "−"}
{"MOLECULE": "CC1(C)C2CC3OB([C@H](CCc4ccccc4)CNC(=O)[C@@H](N)Cc4ccccc4)O[C@]3(C)C1C2 (stereo partly shown)", "RECORDED_VALUE": "−"}
{"MOLECULE": "CC1(C)C2CC3OB(C(CNC(=O)C(N)CCCCN)c4ccccc4)OC3(C)C1C2 (stereo not shown)", "RECORDED_VALUE": "+"}
{"MOLECULE": "C[C@H](N)C(=O)NC[C@H](Cc1ccccc1)B1OC2CC3CC(C3(C)C)[C@]2(C)O1 (stereo partly shown)", "RECORDED_VALUE": "−"}
{"MOLECULE": "CC1(C)C2CC3OB([C@H](CNC(=O)[C@@H](N)Cc4ccccc4)Cc4ccccc4)O[C@@]3(C)C1C2 (stereo partly shown)", "RECORDED_VALUE": "−"}

Reference for the values: patent US20150018311A1
